Biological target: EF-Tu (T. thermophilus) (Thermus thermophilus, UniProt Q5SHN6, T395C)
Test: nitrocellulose filter binding with [3H]GDP
Assay Metric: Kd (nM)
A number alone suffices; assume nM.

Task: Give Kd; test system EF-Tu (T. thermophilus) (Thermus thermophilus, UniProt Q5SHN6, T395C); compound Nc1nc2c(ncn2[C@@H]2O[C@H](COP(=O)(O)OP(=O)(O)O)[C@@H](O)[C@H]2O)c(=O)[nH]1 [GDP]
Result: 11

----------
Biological target: EF-Tu (T. thermophilus) (Thermus thermophilus, UniProt Q5SHN6)
Assay Metric: Kd (nM)
A number alone suffices; assume nM.

Task: Quickly give me recorded Kd for `Nc1nc2c(ncn2[C@@H]2O[C@H](COP(=O)(O)OP(=O)(O)O)[C@@H](O)[C@H]2O)c(=O)[nH]1`
Result: 7

Cited source: paper PMC3210414
